Below, each of the binders is paired with its reported pKd value.
# Test target: T1, Antibody 178-09_His B.1.1.7 (27080) (SARS-CoV-2, UniProt P0DTC2 14-685)
# T1 construct: domain: S1; also called TB178-9
# Method: Carterra SPR
// scale note: pKd = -log10(conc_M); give the bare number

Binder: 8-3 (VHH, not shown: a dimerising Fc or GST) VHH: EVQLVESGGGLVQPGGSLRLSCAASGTTLDYYAMGWFRQAPGKEREFVAAISWSGGSTAYADSVKGRFTISADNSKNTAYLQMNSLKPEDTAVYYCAREDYYDSSGYSWGQGTLVTVSS
pKd: 7.39

Q. Fill in pKd for record 3-31 (VHH, also called 3-31_ExpiCHO) VHH: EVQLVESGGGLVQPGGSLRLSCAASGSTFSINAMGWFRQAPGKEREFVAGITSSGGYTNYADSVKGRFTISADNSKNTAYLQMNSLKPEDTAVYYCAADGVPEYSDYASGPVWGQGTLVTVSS
A. 7.79

Q. Supply pKd value. Item: 7-30 (VHH, not shown: a dimerising Fc or GST) VHH: EVQLVESGGGLVQPGGSLRLSCAASGRTFSMHAMGWFRQAPGKEREFVASISSQGRTNYADSVKGRFTISADNSKNTAYLQMNSLKPEDTAVYYCAAEVRNGSDYLPIDWGQGTLVTVSS
A. 7.49

Q. Provide one value: measured pKd of 7-31 (VHH, not shown: a dimerising Fc or GST) VHH: EVQLVESGGGLVQPGGSLRLSCAASGFTFSNYSMGWFRQAPGKEREFVAAIHWNGDSTAYADSVKGRFTISADNSKNTAYLQMNSLKPEDTAVYYCAAQTEDSAQYIWGQGTLVTVSS
A. 6.41
